Compiled notes: published pIC50 values involving ROCK2 (Homo sapiens, UniProt O75116).
pIC50: −log10 of the molar value.

Look over these answered cases.
- COMPOUND: "CCOC(=O)N1CCC2(CC1)CN(c1ccc(-c3cn[nH]c3)cn1)C(=O)N2Cc1cccc(OC)c1"
  RESULT: "6.60 to 7.52"
- COMPOUND: "Cn1cc(C(=O)Nc2cccc(-n3nc(Nc4ccc5[nH]ncc5c4Cl)c4cccnc43)c2)cn1"
  RESULT: "> 6.52"
- COMPOUND: "COc1cc(-n2nc(C)n(Cc3ccccc3F)c2=O)ccc1-c1cn[nH]c1"
  RESULT: "7.30 to 8.30"
- COMPOUND: "CN(C)C(=O)c1cccc(CN2C(=O)N(c3ccc(-c4cn[nH]c4)cc3)CC23CCOCC3)c1"
  RESULT: "6.60 to 7.52"
- COMPOUND: "[H][C@]1(c2n[nH]c(=O)c3ccccc32)C[C@]2(C[C@@H](NC(=O)c3ccc(-n4cnc(C)c4)c(OC)c3)C2)C1 (stereo partly drawn)"
  RESULT: "7.82 to 8.29"

Report value only: pIC50, ROCK2 (Homo sapiens, UniProt O75116), O=C(NC1CC2(C1)CC(c1n[nH]c(=O)c3ccccc13)C2)c1cnn2ccc(OCCO)cc12 (stereo not drawn) 7.00 to 7.82

Report value only: pIC50, ROCK2 (Homo sapiens, UniProt O75116), CC(O)c1cc(C(=O)N[C@H](C)c2ccccc2)ccc1-c1cn[nH]c1 (stereo partly drawn) 8.11

Report value only: pIC50, ROCK2 (Homo sapiens, UniProt O75116), NC(=O)c1cccnc1OC1CC2(C1)CC(N1C(=O)CN(c3ccccc3)C1=O)C2 (stereo not drawn) 8.05

Report value only: pIC50, ROCK2 (Homo sapiens, UniProt O75116), [H][C@]1(c2n[nH]c(=O)c3ccccc32)C[C@]2(C[C@@H](NC(=O)c3cnn4cccc(N5CCOCC5)c34)C2)C1 (stereo partly drawn) 5.68 to 7.00

Report value only: pIC50, ROCK2 (Homo sapiens, UniProt O75116), COc1nc(-n2ccn(Cc3cc(F)ccc3C)c2=O)ccc1-c1cn[nH]c1 7.70 to 8.68

Report value only: pIC50, ROCK2 (Homo sapiens, UniProt O75116), Cn1nc(C(=O)NC2CC3(C2)CC(c2n[nH]c(=O)c4ccccc24)C3)cc1OC(F)F (stereo not drawn) 7.00 to 7.82

Report value only: pIC50, ROCK2 (Homo sapiens, UniProt O75116), COc1cc(Cn2c(CO)nn(-c3ccc(-c4cn[nH]c4)cc3)c2=O)ccc1F 7.30 to 8.30

Report value only: pIC50, ROCK2 (Homo sapiens, UniProt O75116), NC[C@@H](C(=O)Nc1cc2ccncc2s1)c1ccc(COC(=O)[C@H]2C[C@H](CO[N+](=O)[O-])C2)cc1 8.19

Report value only: pIC50, ROCK2 (Homo sapiens, UniProt O75116), N#CC1CN(C(=O)c2cc3ccc(-c4nccc(Nc5ccc(-c6cn[nH]c6)cc5)n4)cc3s2)C1 7.89

Report value only: pIC50, ROCK2 (Homo sapiens, UniProt O75116), O=C(NC1CC2(C1)CC(c1n[nH]c(=O)c3ccccc13)C2)c1cnn2cc(CCCNC3CC3)ccc12 (stereo not drawn) 7.82 to 8.29

Report value only: pIC50, ROCK2 (Homo sapiens, UniProt O75116), COc1cccc(Cn2cnn(-c3ccc(-c4ccnc(N)c4)cc3)c2=O)c1 7.30 to 8.30

Report value only: pIC50, ROCK2 (Homo sapiens, UniProt O75116), CC(C)(O)Cn1nc(C(=O)NC2CC3(C2)CC(c2n[nH]c(=O)c4ccccc24)C3)c2ccc(-c3cccc(Cl)c3)cc21 (stereo not drawn) 7.82 to 8.29
